# reported TERMINAL_BW; entries follow
Species: Rattus norvegicus
assay_method_text: Open TG-GATES - Regimen: Daily Repeat
Format: toxicity, organism-based, Sprague-Dawley
Design: regimen Daily Repeat, gender Male, age 6 weeks
measurement_context: in vivo, po, 100 mg/kg, 72 h, route gavage, dose level Low, time 3 day
Number in g, nothing else.

Examples with answers:
Cc1nnc2n1-c1ccc(Cl)cc1C(c1ccccc1Cl)=NC2: 218.3
COC(=O)C1=C(C)NC(C)=C(C(=O)OC)C1c1ccccc1[N+](=O)[O-]: 223

Kindly consider the entry below.
For O=C(OC[C@H]1O[C@@H](OC(=O)c2cc(O)c(O)c(OC(=O)c3cc(O)c(O)c(O)c3)c2)[C@H](OC(=O)c2cc(O)c(O)c(OC(=O)c3cc(O)c(O)c(O)c3)c2)[C@@H](OC(=O)c2cc(O)c(O)c(OC(=O)c3cc(O)c(O)c(O)c3)c2)[C@@H]1OC(=O)c1cc(O)c(O)c(OC(=O)c2cc(O)c(O)c(O)c2)c1)c1cc(O)c(O)c(OC(=O)c2cc(O)c(O)c(O)c2)c1 , what is its reported TERMINAL_BW?
221.9

* * *

Organism: Rattus norvegicus
assay_method_text: Open TG-GATES - Regimen: Daily Repeat
Assay type: toxicity, organism-based, Sprague-Dawley
Design: regimen Daily Repeat, gender Male, age 6 weeks
measurement_context: in vivo, po, 300 mg/kg, […], tissue Plasma, route gavage, dose level Middle, time 28 day
measured_parameter: DBIL
Please state the number and follow it with the unit.

CN/C(=N/CCSCc1nc[nH]c1C)NC#N: 0.1 mg/dL

For O=C(OC[C@H]1O[C@@H](OC(=O)c2cc(O)c(O)c(OC(=O)c3cc(O)c(O)c(O)c3)c2)[C@H](OC(=O)c2cc(O)c(O)c(OC(=O)c3cc(O)c(O)c(O)c3)c2)[C@@H](OC(=O)c2cc(O)c(O)c(OC(=O)c3cc(O)c(O)c(O)c3)c2)[C@@H]1OC(=O)c1cc(O)c(O)c(OC(=O)c2cc(O)c(O)c(O)c2)c1)c1cc(O)c(O)c(OC(=O)c2cc(O)c(O)c(O)c2)c1 , what is its reported DBIL?
0.01 mg/dL

Please give the result for CCOc1ccc(NC(C)=O)cc1 too.
0.02 mg/dL

Please give the result for CNC(=C[N+](=O)[O-])NCCSCc1ccc(CN(C)C)o1 too.
0.1 mg/dL

Please give the result for COC(=O)C1=C(C)NC(C)=C(C(=O)OC)C1c1ccccc1[N+](=O)[O-] too.
0.012 mg/dL

Please give the result for Cc1nnc2n1-c1ccc(Cl)cc1C(c1ccccc1Cl)=NC2 too.
0.012 mg/dL

* * *

# reported LIVER; entries follow
Species on record: Rattus norvegicus
assay_method_text: Open TG-GATES - Regimen: Daily Repeat
Type: toxicity, organism-based, Sprague-Dawley
Design: regimen Daily Repeat, gender Male, age 6 weeks
measurement_context: in vivo, po, 0 mg/kg, […], tissue Liver, route gavage, dose level Control, time 14 day
Number in g, nothing else.

For CCOc1ccc(NC(C)=O)cc1 , what is its reported LIVER?
13.9

Please give the result for O=C(OC[C@H]1O[C@@H](OC(=O)c2cc(O)c(O)c(OC(=O)c3cc(O)c(O)c(O)c3)c2)[C@H](OC(=O)c2cc(O)c(O)c(OC(=O)c3cc(O)c(O)c(O)c3)c2)[C@@H](OC(=O)c2cc(O)c(O)c(OC(=O)c3cc(O)c(O)c(O)c3)c2)[C@@H]1OC(=O)c1cc(O)c(O)c(OC(=O)c2cc(O)c(O)c(O)c2)c1)c1cc(O)c(O)c(OC(=O)c2cc(O)c(O)c(O)c2)c1 too.
14.2

Please give the result for CC(C)NNC(=O)c1ccncc1 too.
11.8

Please give the result for NC1=NC(=O)C(c2ccccc2)O1 (stereo not given) too.
14.4

Please give the result for CCCc1cc(=O)[nH]c(=S)[nH]1 too.
12.2

* * *

Organism: Rattus norvegicus
assay_method_text: Open TG-GATES - Regimen: Daily Repeat
Assay type: toxicity, organism-based, Sprague-Dawley
Set-up: regimen Daily Repeat, gender Male, age 6 weeks
measurement_context: in vivo, po, 1000 mg/kg, […], tissue Plasma, route gavage, dose level High, time 7 day
# reported TBIL; entries follow
Number in mg/dL, nothing else.

Examples with answers:
CN/C(=N/CCSCc1nc[nH]c1C)NC#N [CIMETIDINE]: 0.1
CCOc1ccc(NC(C)=O)cc1 [PHENACETIN]: 0.2
CNC(=C[N+](=O)[O-])NCCSCc1ccc(CN(C)C)o1 [RANITIDINE]: 0.1
Cc1nnc2n1-c1ccc(Cl)cc1C(c1ccccc1Cl)=NC2 [TRIAZOLAM]: 0.032
O=C(OC[C@H]1O[C@@H](OC(=O)c2cc(O)c(O)c(OC(=O)c3cc(O)c(O)c(O)c3)c2)[C@H](OC(=O)c2cc(O)c(O)c(OC(=O)c3cc(O)c(O)c(O)c3)c2)[C@@H](OC(=O)c2cc(O)c(O)c(OC(=O)c3cc(O)c(O)c(O)c3)c2)[C@@H]1OC(=O)c1cc(O)c(O)c(OC(=O)c2cc(O)c(O)c(O)c2)c1)c1cc(O)c(O)c(OC(=O)c2cc(O)c(O)c(O)c2)c1 [TANNIC ACID]: 0.4

For COC(=O)C1=C(C)NC(C)=C(C(=O)OC)C1c1ccccc1[N+](=O)[O-] [NIFEDIPINE] , what is its reported TBIL?
0.028

* * *

# reported TC; entries follow
Species on record: Rattus norvegicus
assay_method_text: Open TG-GATES - Regimen: Daily Repeat
Assay type: toxicity, organism-based, Sprague-Dawley
Parameters: regimen Daily Repeat, gender Male, age 6 weeks
measurement_context: in vivo, po, 0 mg/kg, 72 h, tissue Plasma, route gavage, dose level Control, time 3 day
Number in mg/dL, nothing else.

CCCc1cc(=O)[nH]c(=S)[nH]1: 85.6
COC(=O)C1=C(C)NC(C)=C(C(=O)OC)C1c1ccccc1[N+](=O)[O-]: 83.8
Brc1ccccc1: 79
CC(C)NNC(=O)c1ccncc1: 83.8
CNC(=C[N+](=O)[O-])NCCSCc1ccc(CN(C)C)o1: 92.4

For CN/C(=N/CCSCc1nc[nH]c1C)NC#N , what is its reported TC?
75.8

Please give the result for Nc1c2c(nc3ccccc13)CCCC2 too.
72.8

Please give the result for CN1C(=O)CCS(=O)(=O)C1c1ccc(Cl)cc1 (centres undefined) too.
88.8

Please give the result for CCOc1ccc(NC(C)=O)cc1 too.
85.8

* * *

Species: Rattus norvegicus
assay_method_text: Open TG-GATES - Regimen: Single
Format: toxicity, organism-based, Sprague-Dawley
Parameters: regimen Single, gender Male, age 6 weeks
measurement_context: in vivo, po, 1000 mg/kg, 3 h, tissue Blood, route gavage, dose level High
measured_parameter: APTT (s)
Number in s, nothing else.

Cc1nnc2n1-c1ccc(Cl)cc1C(c1ccccc1Cl)=NC2: 16

For CN/C(=N/CCSCc1nc[nH]c1C)NC#N , what is its reported APTT?
19.1

Please give the result for CNC(=C[N+](=O)[O-])NCCSCc1ccc(CN(C)C)o1 too.
21.3

Please give the result for O=C(OC[C@H]1O[C@@H](OC(=O)c2cc(O)c(O)c(OC(=O)c3cc(O)c(O)c(O)c3)c2)[C@H](OC(=O)c2cc(O)c(O)c(OC(=O)c3cc(O)c(O)c(O)c3)c2)[C@@H](OC(=O)c2cc(O)c(O)c(OC(=O)c3cc(O)c(O)c(O)c3)c2)[C@@H]1OC(=O)c1cc(O)c(O)c(OC(=O)c2cc(O)c(O)c(O)c2)c1)c1cc(O)c(O)c(OC(=O)c2cc(O)c(O)c(O)c2)c1 too.
17.2

Please give the result for COC(=O)C1=C(C)NC(C)=C(C(=O)OC)C1c1ccccc1[N+](=O)[O-] too.
16.6

* * *

Species on record: Rattus norvegicus
assay_method_text: Open TG-GATES - Regimen: Daily Repeat
Format: toxicity, organism-based, Sprague-Dawley
Parameters: regimen Daily Repeat, gender Male, age 6 weeks
measurement_context: in vivo, po, 0 mg/kg, 72 h, tissue Plasma, route gavage, dose level Control, time 3 day
measured_parameter: AST (IU/L)
Number in IU/L, nothing else.

CNC(=C[N+](=O)[O-])NCCSCc1ccc(CN(C)C)o1: 66.6
CCCc1cc(=O)[nH]c(=S)[nH]1: 65.4
CN1C(=O)CCS(=O)(=O)C1c1ccc(Cl)cc1 (centres undefined): 68.2
Brc1ccccc1: 77.8
Cc1nnc2n1-c1ccc(Cl)cc1C(c1ccccc1Cl)=NC2: 75.8

For NC1=NC(=O)C(c2ccccc2)O1 (centres undefined) , what is its reported AST?
70

Please give the result for CCOc1ccc(NC(C)=O)cc1 too.
67.2

Please give the result for O=C(OC[C@H]1O[C@@H](OC(=O)c2cc(O)c(O)c(OC(=O)c3cc(O)c(O)c(O)c3)c2)[C@H](OC(=O)c2cc(O)c(O)c(OC(=O)c3cc(O)c(O)c(O)c3)c2)[C@@H](OC(=O)c2cc(O)c(O)c(OC(=O)c3cc(O)c(O)c(O)c3)c2)[C@@H]1OC(=O)c1cc(O)c(O)c(OC(=O)c2cc(O)c(O)c(O)c2)c1)c1cc(O)c(O)c(OC(=O)c2cc(O)c(O)c(O)c2)c1 too.
62.2

Please give the result for CN(C)CCC(c1ccc(Cl)cc1)c1ccccn1 (centres undefined) too.
69.4
